Recorded values, source paper PMC9005681.

molecular target: H1 receptor (Homo sapiens); construct: expressed in transfected cells; experiment: PDSP secondary binding, H1; design: species or system human or rodent; settings: Receptor H1; secondary assay; read-out: Ki (nM) 1
Sequence (P35367 whole entry): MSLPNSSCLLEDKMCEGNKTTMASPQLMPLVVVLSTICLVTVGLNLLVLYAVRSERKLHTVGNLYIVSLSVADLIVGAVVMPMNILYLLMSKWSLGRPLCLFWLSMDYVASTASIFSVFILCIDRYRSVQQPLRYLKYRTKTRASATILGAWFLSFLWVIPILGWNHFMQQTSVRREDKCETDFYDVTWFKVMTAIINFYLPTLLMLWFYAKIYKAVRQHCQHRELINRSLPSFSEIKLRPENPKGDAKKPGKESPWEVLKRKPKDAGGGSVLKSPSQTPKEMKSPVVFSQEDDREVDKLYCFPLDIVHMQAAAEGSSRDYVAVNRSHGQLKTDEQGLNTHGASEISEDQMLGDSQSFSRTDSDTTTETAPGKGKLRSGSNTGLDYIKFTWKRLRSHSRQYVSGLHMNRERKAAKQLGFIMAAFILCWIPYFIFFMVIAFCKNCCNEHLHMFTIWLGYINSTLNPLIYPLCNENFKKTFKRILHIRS
VALUE KIND: Ki

q: Ki for O=c1oc2ccccc2cc1-c1cn2cc(Cc3ccc(F)cc3)sc2n1 [UNC10302680A, iMDK] ?
a: > 10000 nM

====

For each record, write down the corresponding Inhibition 2.
Biological target: cloned human or rodent CNS receptors, channels, and transporters (PDSP panel) (Homo sapiens, UniProt P46098)
Construct: expressed in transfected cells
Sequence (P46098 24-478): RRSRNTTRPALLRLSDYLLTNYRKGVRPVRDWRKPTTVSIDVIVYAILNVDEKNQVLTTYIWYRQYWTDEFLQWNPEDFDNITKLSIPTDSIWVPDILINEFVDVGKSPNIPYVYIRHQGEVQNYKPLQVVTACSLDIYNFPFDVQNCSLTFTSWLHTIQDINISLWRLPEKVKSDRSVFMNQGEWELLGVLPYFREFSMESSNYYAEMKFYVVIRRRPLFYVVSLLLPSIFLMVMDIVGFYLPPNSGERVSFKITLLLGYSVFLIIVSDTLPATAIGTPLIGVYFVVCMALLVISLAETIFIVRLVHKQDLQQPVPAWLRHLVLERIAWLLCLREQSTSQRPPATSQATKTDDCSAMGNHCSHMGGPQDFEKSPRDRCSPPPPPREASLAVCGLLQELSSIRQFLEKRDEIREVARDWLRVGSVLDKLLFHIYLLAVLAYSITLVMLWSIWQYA
Assay: PDSP GPCR panel primary binding assays at 10 μM
Settings: Receptor 5-HT3; primary assay, 10 μM
Give bare numbers, in %.

Some entries whose results are on file:
CCCCNc1ncc2c(-c3ccc(CN4CCN(C)CC4)cc3)cn([C@H]3CC[C@H](O)CC3)c2n1 [UNC2025C, UNC2025]
35.98
c1cn2cc(-c3ccc4cn[nH]c4c3)nc(Nc3ccc(N4CCOCC4)cc3)c2n1 [UNC10302678A, Entospletinib (GS-9973)]
12.98
O=c1oc2ccccc2cc1-c1cn2cc(Cc3ccc(F)cc3)sc2n1 [UNC10302680A, iMDK]
26.27

Please find the next molecule below.
q: Inhibition 2 lookup needed for Cl.NC(=O)c1cnc(N[C@@H]2CCCC[C@@H]2N)nc1Nc1cccc(-n2nccn2)c1 [UNC10302682A, P505-15 (PRT06207 HCl)] , thanks.
a: 77.09
